Experiment: self-splicing fitness, log relative to wild type (ln ratio); higher = more splicing; Tetrahymena group I intron in knt gene, E. coli kanamycin selection, DiMSum; sequences stand for … in CUCUCU…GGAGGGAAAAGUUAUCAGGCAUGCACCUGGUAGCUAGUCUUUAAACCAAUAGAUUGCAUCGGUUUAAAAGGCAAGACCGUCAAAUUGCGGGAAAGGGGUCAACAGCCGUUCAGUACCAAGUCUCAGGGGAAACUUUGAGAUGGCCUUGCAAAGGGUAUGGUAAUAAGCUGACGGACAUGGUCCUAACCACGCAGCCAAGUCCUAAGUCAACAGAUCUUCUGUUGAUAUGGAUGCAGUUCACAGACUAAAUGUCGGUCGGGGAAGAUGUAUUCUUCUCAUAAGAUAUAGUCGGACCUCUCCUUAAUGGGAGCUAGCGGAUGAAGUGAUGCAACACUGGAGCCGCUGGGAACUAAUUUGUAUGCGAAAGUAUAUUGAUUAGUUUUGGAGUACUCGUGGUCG;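 further: selection with 25 µg/mL kanamycin versus none on LB agar overnight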
Conditions: 37 °C
measured quantity: self-splicing fitness (ln)
// no unit, no text: just the number

Output self-splicing fitness (ln) of `GCGUAGCAAUAUUACGGGCU`
-1.62

Output self-splicing fitness (ln) of `AAGAAGCAAUAUUACGGCCC`
-0.518

Output self-splicing fitness (ln) of `UCUAAGCAAUAUUACGUCUU`
-4.18

Output self-splicing fitness (ln) of `AACUAGCAAUAUUACGGACU`
0.037

Output self-splicing fitness (ln) of `UCCAAGCAAUAUUACGCGCC`
-2.31

Output self-splicing fitness (ln) of `AACCAGCAAUAUUACGUUUC`
-2.92

Output self-splicing fitness (ln) of `UGGCAGCAAUAUUACGAAGU`
-2.62

Output self-splicing fitness (ln) of `UCAAAGCAAUAUUACGACUA`
-1.03

Output self-splicing fitness (ln) of `GGCGAGCAAUAUUACGAUUG`
-2.05

Output self-splicing fitness (ln) of `GUAGAGCAAUAUUACGAGUU`
-1.85

Output self-splicing fitness (ln) of `AUUUAGCAAUAUUACGAAAU`
-1.54

Output self-splicing fitness (ln) of `AGGUAGCAAUAUUACGUAGA`
-2.07

Output self-splicing fitness (ln) of `AUAAAGCAAUAUUACGGUUG`
-1.36

Output self-splicing fitness (ln) of `UCUGAGCAAUAUUACGCGAU`
-3.02

Output self-splicing fitness (ln) of `UGAAAGCAAUAUUACGGACC`
-0.126

Output self-splicing fitness (ln) of `GCCAAGCAAUAUUACGGCCC`
-1.57

Output self-splicing fitness (ln) of `AUCAAGCAAUAUUACGGUUG`
-1.92

Output self-splicing fitness (ln) of `AAGGAGCAAUAUUACGUAAU`
-2.27

Output self-splicing fitness (ln) of `CCUUAGCAAUAUUACGAGAA`
-2.79

Output self-splicing fitness (ln) of `AGGUAGCAAUAUUACGGAAU`
-1.29

Output self-splicing fitness (ln) of `AGAAAGCAAUAUUACGCCAU`
-2.21

Output self-splicing fitness (ln) of `ACUGAGCAAUAUUACGACCG`
-0.981

Output self-splicing fitness (ln) of `CCAAAGCAAUAUUACGCAAA`
-1.72

Output self-splicing fitness (ln) of `GUUCAGCAAUAUUACGCUGA`
-2.43

Output self-splicing fitness (ln) of `CCGCAGCAAUAUUACGCCGU`
-2.26

Output self-splicing fitness (ln) of `GGCAAGCAAUAUUACGUCGU`
0.0841

Output self-splicing fitness (ln) of `GAACAGCAAUAUUACGUGUU`
-2.61

Output self-splicing fitness (ln) of `AAUGAGCAAUAUUACGCGCC`
-2.73

Output self-splicing fitness (ln) of `ACACAGCAAUAUUACGGGCC`
-2.11

Output self-splicing fitness (ln) of `UACUAGCAAUAUUACGCACA`
0.021

Output self-splicing fitness (ln) of `GCCAAGCAAUAUUACGUUUG`
-2.61

Output self-splicing fitness (ln) of `UUCAAGCAAUAUUACGUAAU`
-1.56

Output self-splicing fitness (ln) of `GAGUAGCAAUAUUACGAGAU`
-2.51

Output self-splicing fitness (ln) of `GGCCAGCAAUAUUACGAUGC`
0.00176

Output self-splicing fitness (ln) of `AUUAAGCAAUAUUACGUGUC`
-1.02

Output self-splicing fitness (ln) of `ACUAAGCAAUAUUACGACAG`
-0.322

Output self-splicing fitness (ln) of `GGGCAGCAAUAUUACGGAGA`
-2.56

Output self-splicing fitness (ln) of `ACAAAGCAAUAUUACGCUAU`
-0.848

Output self-splicing fitness (ln) of `GUAGAGCAAUAUUACGCGUU`
-0.909

Output self-splicing fitness (ln) of `CAUCAGCAAUAUUACGCUGU`
-1.84

Output self-splicing fitness (ln) of `CUGAAGCAAUAUUACGUGCU`
-2.95

Output self-splicing fitness (ln) of `ACACAGCAAUAUUACGUUGC`
-2.58

Output self-splicing fitness (ln) of `CCCUAGCAAUAUUACGAGCA`
-3.08

Output self-splicing fitness (ln) of `AACUAGCAAUAUUACGCAAA`
-1.72

Output self-splicing fitness (ln) of `UGGUAGCAAUAUUACGACGG`
-0.695

Output self-splicing fitness (ln) of `GAGAAGCAAUAUUACGAUGA`
-0.334

Output self-splicing fitness (ln) of `UCAAAGCAAUAUUACGAAGC`
-1.84

Output self-splicing fitness (ln) of `AUCUAGCAAUAUUACGUUUG`
-2.04

Output self-splicing fitness (ln) of `AUACAGCAAUAUUACGUCCG`
-1.38

Output self-splicing fitness (ln) of `UCAGAGCAAUAUUACGACAG`
-2.92

Output self-splicing fitness (ln) of `UACCAGCAAUAUUACGCGGU`
-3.47

Output self-splicing fitness (ln) of `ACUCAGCAAUAUUACGGCUC`
-0.761

Output self-splicing fitness (ln) of `GACAAGCAAUAUUACGCCCA`
-0.609

Output self-splicing fitness (ln) of `CUGAAGCAAUAUUACGGUAG`
-0.509

Output self-splicing fitness (ln) of `CAAGAGCAAUAUUACGUGCC`
-3.51

Output self-splicing fitness (ln) of `GGAGAGCAAUAUUACGGCUU`
-2.01

Output self-splicing fitness (ln) of `AUAAAGCAAUAUUACGUGCG`
0.137

Output self-splicing fitness (ln) of `UACCAGCAAUAUUACGUCAU`
-1.52

Output self-splicing fitness (ln) of `GAACAGCAAUAUUACGUGGG`
-1.9

Output self-splicing fitness (ln) of `AGGAAGCAAUAUUACGACGC`
-0.574

Output self-splicing fitness (ln) of `AUACAGCAAUAUUACGGUGU`
-2.18

---

Assay: self-splicing fitness, log relative to wild type (ln ratio); higher = more splicing; Tetrahymena group I intron in knt gene, E. coli kanamycin selection, DiMSum; sequences stand for … in CUCUCU…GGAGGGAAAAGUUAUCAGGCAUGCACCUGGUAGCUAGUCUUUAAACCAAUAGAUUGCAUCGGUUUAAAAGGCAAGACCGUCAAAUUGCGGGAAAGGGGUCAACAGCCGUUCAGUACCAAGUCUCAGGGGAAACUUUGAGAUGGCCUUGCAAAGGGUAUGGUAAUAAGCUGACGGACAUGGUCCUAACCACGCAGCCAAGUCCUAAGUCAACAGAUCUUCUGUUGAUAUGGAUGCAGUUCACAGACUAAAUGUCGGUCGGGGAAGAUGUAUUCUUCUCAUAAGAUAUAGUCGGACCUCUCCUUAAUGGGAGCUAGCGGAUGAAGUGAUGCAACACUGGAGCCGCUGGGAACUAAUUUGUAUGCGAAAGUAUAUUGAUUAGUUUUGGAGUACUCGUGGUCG
Conditions: 37 °C
measured quantity: self-splicing fitness (ln)

Output self-splicing fitness (ln) of `UAACAGCAAUAUUACGGUGU`
-2.01

Output self-splicing fitness (ln) of `GAUGAGCAAUAUUACGAGAC`
-1.97

Output self-splicing fitness (ln) of `CGAGAGCAAUAUUACGUGCC`
-2.05

Output self-splicing fitness (ln) of `UCCUAGCAAUAUUACGACGA`
0.868

Output self-splicing fitness (ln) of `CCCCAGCAAUAUUACGCUAA`
-3.2

Output self-splicing fitness (ln) of `UGUGAGCAAUAUUACGCCGA`
-1.77

Output self-splicing fitness (ln) of `UGGAAGCAAUAUUACGCCCC`
-1.36

---

Assay: self-splicing fitness, log relative to wild type (ln ratio); higher = more splicing; Tetrahymena group I intron in knt gene, E. coli kanamycin selection, DiMSum; sequences stand for … in CUCUCU…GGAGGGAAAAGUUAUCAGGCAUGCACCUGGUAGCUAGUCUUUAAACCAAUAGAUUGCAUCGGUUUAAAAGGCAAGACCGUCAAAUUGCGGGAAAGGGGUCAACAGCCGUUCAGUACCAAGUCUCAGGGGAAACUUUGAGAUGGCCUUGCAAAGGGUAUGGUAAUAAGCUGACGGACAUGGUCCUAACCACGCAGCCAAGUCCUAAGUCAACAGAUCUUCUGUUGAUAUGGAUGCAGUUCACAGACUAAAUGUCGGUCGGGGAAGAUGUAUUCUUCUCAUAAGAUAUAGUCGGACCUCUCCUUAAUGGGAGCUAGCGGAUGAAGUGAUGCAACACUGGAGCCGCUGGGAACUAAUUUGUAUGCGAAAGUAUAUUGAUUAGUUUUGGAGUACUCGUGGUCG
Details: 30 °C
Assign self-splicing fitness (ln) to each entry below.
// no unit, no text: just the number

Output self-splicing fitness (ln) of `CUGAAGCAAUAUUACGUGCU`
-4.66

Output self-splicing fitness (ln) of `UUAGAGCAAUAUUACGUUCU`
-4.07

Output self-splicing fitness (ln) of `CUUGAGCAAUAUUACGUAAG`
-1.68

Output self-splicing fitness (ln) of `GUGGAGCAAUAUUACGUGUG`
-2.65

Output self-splicing fitness (ln) of `GAUCAGCAAUAUUACGCAUC`
-4.75

Output self-splicing fitness (ln) of `GACAAGCAAUAUUACGUACG`
-1.82

Output self-splicing fitness (ln) of `UAUAAGCAAUAUUACGUUCA`
-0.586

Output self-splicing fitness (ln) of `CUUAAGCAAUAUUACGACAA`
-2.75

Output self-splicing fitness (ln) of `CUGGAGCAAUAUUACGUCUG`
0.206

Output self-splicing fitness (ln) of `GGAAAGCAAUAUUACGAGAG`
-4.25

Output self-splicing fitness (ln) of `UGACAGCAAUAUUACGGAGU`
-4.14

Output self-splicing fitness (ln) of `AUACAGCAAUAUUACGAGUU`
-2.65

Output self-splicing fitness (ln) of `AUUAAGCAAUAUUACGCUUU`
-2.38

Output self-splicing fitness (ln) of `GCACAGCAAUAUUACGUGAC`
-1.13

Output self-splicing fitness (ln) of `UGGUAGCAAUAUUACGGACG`
1.33

Output self-splicing fitness (ln) of `GUUGAGCAAUAUUACGGCGA`
-2.81

Output self-splicing fitness (ln) of `UCCAAGCAAUAUUACGUACU`
-3.94

Output self-splicing fitness (ln) of `GCGGAGCAAUAUUACGGCAU`
-1.88

Output self-splicing fitness (ln) of `AUGUAGCAAUAUUACGCACG`
-1.02

Output self-splicing fitness (ln) of `GGAUAGCAAUAUUACGGAAG`
-3.41

Output self-splicing fitness (ln) of `UUGCAGCAAUAUUACGCAGC`
-2.41

Output self-splicing fitness (ln) of `CUCAAGCAAUAUUACGAUGC`
-3.9

Output self-splicing fitness (ln) of `UGUGAGCAAUAUUACGCCCU`
-1.54

Output self-splicing fitness (ln) of `GAAGAGCAAUAUUACGAAGA`
-2.62
